Target: Cathepsin D (Cat D) (Homo sapiens, UniProt P07339)
Sequence (P07339 65-412, species assumed): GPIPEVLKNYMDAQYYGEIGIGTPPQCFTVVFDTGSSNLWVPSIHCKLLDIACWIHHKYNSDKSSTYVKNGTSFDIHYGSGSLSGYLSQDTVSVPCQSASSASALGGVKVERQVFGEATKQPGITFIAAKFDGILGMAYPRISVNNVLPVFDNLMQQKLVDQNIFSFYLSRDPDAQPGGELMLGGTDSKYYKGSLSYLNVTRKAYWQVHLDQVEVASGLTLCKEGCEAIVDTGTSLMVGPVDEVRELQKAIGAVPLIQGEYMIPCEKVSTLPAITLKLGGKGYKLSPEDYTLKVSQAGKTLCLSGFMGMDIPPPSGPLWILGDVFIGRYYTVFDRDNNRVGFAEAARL
Test: In vitro enzymatic Cathepsin D (Cat D) FRET assay
Type: biochemical
Details: read-out: CatD IC50
QUANTITY KIND: IC50 (µM)

CC1(C)C(N)=N[C@]2(C)c3cc(NC(=O)c4ccc(OCC5CC5)cn4)ccc3OCC[C@H]2S1(=O)=O ... 1510
Cc1cc(C#N)cnc1C(=O)Nc1ccc2c(c1)[C@@]1(C)N=C(N)C(C)(C)S(=O)(=O)[C@@H]1CCC2 ... 1040
CC1(C)C(N)=N[C@]2(C)c3cc(NC(=O)c4ccc(OC(F)F)cn4)ccc3OCC[C@H]2S1(=O)=O ... 652
COc1ccc(C(=O)Nc2ccc3c(c2)[C@@]2(C)N=C(N)C(C)(C)S(=O)(=O)[C@@H]2C[C@H](C)O3)nc1 ... 1390
C[C@H]1C[C@@H]2[C@](C)(N=C(N)C(C)(C)S2(=O)=O)c2cc(NC(=O)c3cnc(OCC(F)(F)F)cn3)ccc2O1 ... 871
